assaySystem: T1, HBsu (HU of B. subtilis) (Bacillus subtilis, UniProt P08821 1-92)
T1 sequence: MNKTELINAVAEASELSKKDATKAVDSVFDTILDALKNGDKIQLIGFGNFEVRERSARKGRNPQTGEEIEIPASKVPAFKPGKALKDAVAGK
protocolDescription: ITC
resultType: pKd
Here pKd is given on a logarithmic scale as minus log10 of the concentration in mol/L.

Task item: Dear colleague, please send me the reported pKd for dsDNA (DNA1/DNA2) (dsDNA) DNA 1: TGCTTATCAATTTGTTGCACC DNA 2: GGTGCAACAAATTGATAAGCA when you can.
Reply: 6.44

These measurements were taken from paper PMC8892312.
